assayContext: roseburia intestinalis, 12 h, 2 µM;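 further: drug levels quantified by LC–MS at start and end of incubation with the gut bacterium, the decrease indicating bacterial metabolism of the drug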
Description: The drug is tested on Roseburia intestinalis strain: L1-82 for biotransformation. The drug concentrations were measured before and after a 12-h incubation by liquid-chromatography-coupled mass spectrometry (LC–MS)
assayEndpoint: Bacterial Biotransformation

1. COCCCC/C(=N\OCCN)c1ccc(C(F)(F)F)cc1.O=C(O)/C=C\C(=O)O [FLUVOXAMINE MALEATE]: Compound NOT metabolized
2. Cc1ccc(S(=O)(=O)NC(=O)NN2CCCCCC2)cc1 [TOLAZAMIDE]: Compound NOT metabolized
3. CCCCCNC(=N)N/N=C/c1c[nH]c2ccc(OC)cc12.O=C(O)/C=C\C(=O)O [TEGASEROD MALEATE]: Compound NOT metabolized
4. Cc1ccccc1C(OCCN(C)C)c1ccccc1.O=C(O)CC(O)(CC(=O)O)C(=O)O (stereo not drawn) [ORPHENADRINE CITRATE]: Compound NOT metabolized
5. CC(O)(CS(=O)(=O)c1ccc(F)cc1)C(=O)Nc1ccc(C#N)c(C(F)(F)F)c1 (stereo not drawn) [BICALUTAMIDE]: Compound NOT metabolized
6. CO[C@]12C[C@@H](COC(=O)c3cncc(Br)c3)CN(C)[C@@H]1Cc1cn(C)c3cccc2c13: Compound NOT metabolized
7. COc1ccccc1OCCNCC(O)COc1cccc2[nH]c3ccccc3c12 (stereo not drawn): Compound NOT metabolized
8. C[N+]12CCC(CC1)C(OC(=O)C(O)(c1ccccc1)c1ccccc1)C2.[Br-] (stereo not drawn) [CLIDINIUM BROMIDE]: Compound NOT metabolized
9. COc1cc2nc(N3CCN(C(=O)C4COc5ccccc5O4)CC3)nc(N)c2cc1OC.CS(=O)(=O)O (stereo not drawn) [DOXAZOSIN MESYLATE]: Compound NOT metabolized
10. Cc1ccc(NC(=O)c2ccc(CN3CCN(C)CC3)cc2)cc1Nc1nccc(-c2cccnc2)n1: Compound NOT metabolized
11. CCCCC(=O)O[C@]1(C(=O)CO)[C@@H](C)C[C@H]2[C@@H]3CCC4=CC(=O)C=C[C@]4(C)[C@@]3(F)[C@@H](O)C[C@@]21C [BETAMETHASONE VALERATE]: Compound NOT metabolized
12. CN1CCc2c(c3ccccc3n2Cc2ccccc2)C1.CN1CCc2c(c3ccccc3n2Cc2ccccc2)C1.O=S(=O)(O)c1cccc2c(S(=O)(=O)O)cccc12: Compound NOT metabolized
13. CN(C(=O)CN(CCO)CC(=O)N(C)C(C)(C)Cc1ccccc1)C(C)(C)Cc1ccccc1: Compound NOT metabolized
14. OC(CCN1CCCCC1)(c1ccccc1)C1CC2C=CC1C2 (stereo not drawn): Compound NOT metabolized
15. CN1C(C(=O)Nc2ccccn2)=C(O)c2sccc2S1(=O)=O: Compound NOT metabolized
16. CN(C)C(=O)Oc1cccc([N+](C)(C)C)c1.[Br-] [NEOSTIGMINE BROMIDE]: Compound NOT metabolized
17. COc1ccc2c(c1OC)C(=O)O[C@@H]2[C@H]1c2c(cc3c(c2OC)OCO3)CCN1C: Compound metabolized
18. Br.COc1ccc2c(c1)[C@]13CCCC[C@@H]1[C@H](C2)N(C)CC3.O [DEXTROMETHORPHAN HYDROBROMIDE]: Compound NOT metabolized
19. Cc1nc2n(c(=O)c1CCN1CCC(c3noc4cc(F)ccc34)CC1)CCCC2: Compound metabolized
20. Cc1ccc(/C(=C\CN2CCCC2)c2ccccn2)cc1: Compound NOT metabolized
21. CC(=O)Oc1ccc(C(c2ccc(OC(C)=O)cc2)c2ccccn2)cc1: Compound metabolized
22. CCN(CC)C(=O)C1(c2ccccc2)CC1CN (stereo not drawn): Compound NOT metabolized
23. CCN(CC)CCOCCOC(=O)C1(c2ccccc2)CCCC1.O=C(O)CC(O)(CC(=O)O)C(=O)O [CARBETAPENTANE CITRATE]: Compound metabolized
24. NS(=O)(=O)c1cc2c(cc1Cl)N=C(CSCc1ccccc1)NS2(=O)=O [BENZTHIAZIDE]: Compound NOT metabolized
25. COC(=O)Nc1nc2ccc(C(=O)c3ccccc3)cc2[nH]1: Compound NOT metabolized
26. O=C1NCC2(CCN(CCc3ccccc3)CC2)O1 [FENSPIRIDE]: Compound NOT metabolized
27. CN(C)CCC=C1c2ccccc2COc2ccccc21 [DOXEPIN]: Compound NOT metabolized
28. C=C[C@H]1CN2CC[C@H]1C[C@H]2[C@H](O)c1ccnc2ccc(OC)cc12.C=C[C@H]1CN2CC[C@H]1C[C@H]2[C@H](O)c1ccnc2ccc(OC)cc12.O.O.O=S(=O)(O)O [QUININE SULFATE]: Compound NOT metabolized
29. CNC(=C[N+](=O)[O-])NCCSCc1ccc(CN(C)C)o1: Compound metabolized
30. Cc1cc(C)cc(OCC2CNC(=O)O2)c1 (stereo not drawn): Compound NOT metabolized
31. COc1cc2nc(N(C)CCCNC(=O)C3CCCO3)nc(N)c2cc1OC (stereo not drawn): Compound NOT metabolized
32. COC1=C(OC)C(=O)C(CCCCCCCCCCO)=C(C)C1=O: Compound NOT metabolized
33. CCOC(=O)[C@H](CCc1ccccc1)N[C@H]1CCc2ccccc2N(CC(=O)O)C1=O: Compound metabolized
